System: A375-GP cells (Dabrafenib-resistant)
ASSAY_EXPLANATION: Kinase inhibitor library screening, PrestoBlue cell viability, 1 or 10 μM, 72 h
CONDITION: A375 GP, 10μΜ, 72 h; in %
REPORTED_METRIC: cell viability, A375 GP, 10μΜ
The reply should be a number, written without any unit.

Solved cases below.
# MOLECULE, TARGET_OR_SYSTEM, REPORTED_VALUE
rows = [
    ("COc1cc2c(N3CCN(C(=O)Nc4ccc(OC(C)C)cc4)CC3)ncnc2cc1OCCCN1CCCCC1", "A375-GP cells (Dabrafenib-resistant)", 83.5),
    ("CCOc1cc2ncc(C#N)c(Nc3ccc(OCc4ccccn4)c(Cl)c3)c2cc1NC(=O)/C=C/CN(C)C", "A375-GP cells (Dabrafenib-resistant)", 4.2),
    ("C[C@@H]1CCN(C(=O)CC#N)C[C@@H]1N(C)c1ncnc2[nH]ccc12", "A375-GP cells (Dabrafenib-resistant)", 97.7),
]

Request: Look up cell viability, A375 GP, 10μΜ for this molecule: Nc1ncnc2c1c(-c1cccc(OCc3ccccc3)c1)cn2C1CC(CN2CCCC2)C1 (stereo not shown)
Result: 20.2

---

Test system: A375 cells (parental)
ASSAY_EXPLANATION: Kinase inhibitor library screening, PrestoBlue cell viability, 1 or 10 μM, 72 h
CONDITION: A375 Parental, 10μΜ, 72 h
REPORTED_METRIC: Cell viability in kinase inhibitor library screening, A375 Parental, 10μΜ

# MOLECULE, REPORTED_VALUE
records = [
    ("CCCS(=O)(=O)Nc1ccc(F)c(C(=O)c2c[nH]c3ncc(Cl)cc23)c1F [PLX-4720]", 14.6),
    ("CC1(COc2ccc3c(c2)ncn3-c2ccc3cccc(N4CCC(N)CC4)c3n2)COC1 [Crenolanib (CP-868596)]", 69.9),
    ("Oc1ccc(-c2nc(-c3ccncc3)c(-c3ccc(F)cc3)[nH]2)cc1 [SB 202190]", 64.6),
    ("Cc1cc(C(C)Nc2ccccc2)c2nc(N3CCOCC3)cc(=O)n2c1 (centres unmarked) [TGX-221]", 94.9),
]

Request: Item under review: COC(=O)Nc1ccc(-c2nc(N3CCOCC3)c3cnn(C4CCN(Cc5cccnc5)CC4)c3n2)cc1 [WYE-687] . Reported Cell viability in kinase inhibitor library screening, A375 Parental, 10μΜ?
Result: 21.5

---

The following compounds are shown together with reported cell viability, A375 GP, 1μΜ values.
Test system: A375-GP cells (Dabrafenib-resistant)
ASSAY_EXPLANATION: Kinase inhibitor library screening, PrestoBlue cell viability, 1 or 10 μM, 72 h
CONDITION: A375 GP, 1μΜ, 72 h; in %

# COMPOUND, TARGET_OR_SYSTEM, cell viability, A375 GP, 1μΜ
records = [
    ("CCc1cc(Nc2nccc(-c3c(-c4ccc(OC)c(C(=O)Nc5c(F)cccc5F)c4)nc4ccccn34)n2)c(OC)cc1N1CCC(N2CCN(S(C)(=O)=O)CC2)CC1 [GSK1904529A]", "A375-GP cells (Dabrafenib-resistant)", 98.4),
    ("Nc1cccc(-c2cc3c(Oc4cccc(O)c4)ncnc3[nH]2)c1", "A375-GP cells (Dabrafenib-resistant)", 97.7),
    ("CCO.N#CC(=C(/N)Sc1ccccc1N)/C(C#N)=C(\\N)Sc1ccccc1N", "A375-GP cells (Dabrafenib-resistant)", 93.9),
    ("CCC[C@H](NC(=O)/C(C#N)=C/c1cccc(Br)n1)c1ccccc1 [WP1130, reference compound]", "A375-GP cells (Dabrafenib-resistant)", 87.1),
    ("CC(C)(C)c1cc(C=C(C#N)C#N)cc(Br)c1O", "A375-GP cells (Dabrafenib-resistant)", 98.0),
]

Request: Item "CNC(=O)c1ccccc1Nc1nc(Nc2ccc(N3CCOCC3)cc2OC)ncc1Cl" has what recorded cell viability, A375 GP, 1μΜ?
Result: 41.6

Request: Also "CN(c1ncccc1CNc1nc(Nc2ccc3c(c2)CC(=O)N3)ncc1C(F)(F)F)S(C)(=O)=O" , if possible.
Result: 92.2

Request: Then this compound: "C=CC(=O)Nc1cc2c(Nc3ccc(F)c(Cl)c3)ncnc2cc1OCCCN1CCOCC1"
Result: 99.4
